From: PubChem BioAssay (NCI)

System: NCI/ADR-RES ovarian
TEST_DETAILS: NCI tumour cell line growth inhibition, 48 h
MEASUREMENT_LABEL: TGI

                                    compound  measured_result
 0  O=C1CS(=O)(=O)C(c2cccc(Oc3ccccc3)c2)N1c1cc(Cl)ccc1Cl (stereo not drawn)          77.8 µM
 1  O=C(O)CN(CC(=O)O)C(C(=O)O)c1ccccc1 (stereo not drawn)         > 100 µM
 2  COc1ccc(C2=C(N3CCc4ccccc43)C(=O)NC2=O)cc1          > 25 µM
 3  O=[N+]([O-])/C(Cl)=C(\NCCN/C(C(Cl)=C(Cl)Cl)=C(/Cl)[N+](=O)[O-])C(Cl)=C(Cl)Cl         > 100 µM
 4  CCN1C(=O)C(=C/C=C/c2ccc(N(CC)CC)cc2)C(=O)N(CC)C1=S         > 100 µM
 5  COc1ccc(C(=O)c2nc3ccccc3n2CC(=O)c2ccc(Cl)cc2)cc1        > 21.3 µM
 6  CC1c2ccccc2N=C2SC(=S)N3CCN=C3N21 (stereo not drawn)         > 100 µM
 7  CCOC(=O)N1CCN(CCCCCOc2ccccc2C2CCCCC2)CC1          5.66 µM
 8  CCOC(=O)C1CCC(=O)N1C(=O)c1ccccc1Cl (stereo not drawn)         > 100 µM
 9  COc1cc(C2c3cc4c(cc3[C@@H](Nc3ccc5c(c3)OCCO5)C3COC(=O)[C@H]23)OCO4)cc(OC)c1O (stereo partly drawn)         > 100 µM
10  CC1=NNC(=O)C1C1CC(c2c[nH]c3ccccc23)=NN=C1Cl (stereo not drawn)         > 100 µM
11           Cc1cc(O)c(-c2cc(O)c(C)cc2O)cc1O          97.1 µM
12  COc1ccc(Nc2nccc(N3CCN(c4c5ccc(Cl)cc5nc5ccc(OC)cc45)CC3)n2)cc1         > 100 µM

----------
System: OVCAR-5 ovarian
TEST_DETAILS: NCI tumour cell line growth inhibition, 48 h
MEASUREMENT_LABEL: GI50

>>> print(df.to_string())
                                   compound  measurement_label  measured_result
0  CC(C)Oc1ccc(C(=O)Cn2ccnc2)cc1-n1c(CN2CCN(C(=O)COc3ccc(Cl)cc3)CC2)nc2ccccc2c1=O               GI50          17.6 µM
1  O=C(NCCN1CCNCC1)c1ccc(Nc2nc3ccccc3c3occc23)cc1               GI50            15 µM
2  [2H]c1nc(=Nc2cc(NC(=O)C=C)c(N(C)CCN(C)C)cc2OC)[nH]c(-c2cn(C([2H])([2H])[2H])c3ccccc23)c1[2H]               GI50          1.04 µM
3          CSc1ccc(N(C)c2nc(C)nc3c2CCC3)cc1               GI50          1.23 µM
4  CC1c2ccccc2N=C2SC(=S)N3CCN=C3N21 (stereo unspecified)               GI50         > 100 µM
5  Clc1ccc2c(c1)N(c1ncnc3ccc(-c4cnc5[nH]ncc5c4)cc13)CC2               GI50         0.396 µM

----------
Tested on: IGROV1 ovarian
TEST_DETAILS: NCI tumour cell line growth inhibition, 48 h; in the data active = GI50 below about 0.43 µM; inactive = the rest
Outcome codes: yes (1) (active), no (0) (inactive)

                                   molecule  measurement_target  category
0  CC(C)[O-].CC(C)[O-].CN(CCN(C)Cc1cc(F)cc(F)c1[O-])Cc1cc(F)cc(F)c1[O-].[Ti+4]      IGROV1 ovarian    no (0)
1  O=C(/C=C/c1cccc(O)c1)c1cccc(-n2cc(-c3ccc4ccccc4c3)[nH]c2=O)c1      IGROV1 ovarian    no (0)
2         CCCCCCCCCCCCCC[n+]1cccc(C(N)=O)c1      IGROV1 ovarian   yes (1)
3  O=[N+]([O-])c1ccc(-c2cc3c(Nc4ccc(Cl)c(C(F)(F)F)c4)ncnc3s2)cc1      IGROV1 ovarian    no (0)
4  COc1ccc(Nc2nccc(N3CCN(c4c5ccc(Cl)cc5nc5ccc(OC)cc45)CC3)n2)cc1      IGROV1 ovarian    no (0)
5  CC(=O)[CH-]C(=O)c1ccccc1.CC(=O)[CH-]C(=O)c1ccccc1.CC1(C)OCC(C2OC3OC(C)(C)OC3C2[O-])O1.CC[O-].[Ti+4] (stereo not drawn)      IGROV1 ovarian    no (0)
6  Clc1ccc2c(c1)N(c1ncnc3ccc(-c4cnc5[nH]ncc5c4)cc13)CC2      IGROV1 ovarian   yes (1)
7  COC(=O)c1ccc2c(c1)C(=O)c1c-2n(CCCN=[N+]=[N-])c(=O)c2cc([N+](=O)[O-])ccc12      IGROV1 ovarian    no (0)

----------
Test system: SNB-19 CNS
TEST_DETAILS: NCI tumour cell line growth inhibition, 48 h
Reported TGI by item:
MEASUREMENT_LABEL: TGI

>>> print(df.to_string())
                                    compound  measured_result
 0  CCOC(=O)NC(Nc1c(F)c(F)c(F)c(F)c1F)(C(F)(F)F)C(F)(F)F         > 100 µM
 1  Cc1ccc(-n2nc(C(C)(C)C)cc2NC(=O)NCc2cc(F)ccc2Oc2ccc3c(cnn3CCO)c2)cc1         > 100 µM
 2     Cc1cc(C)n(C2=NS(=O)(=O)c3ccccc3N2C)n1         > 100 µM
 3  O=S1SC(=S)C2C=CC=CC21 (stereo unspecified)         > 100 µM
 4  c1ccc(C2CC(=NC3CCCCC3)Nc3ccccc3N2)cc1 (stereo unspecified)         > 100 µM
 5  O=C(/C=C/c1ccc2c(c1)OCO2)Cc1nc2ccccc2[nH]c1=O          49.4 µM
 6  CN1c2ccccc2SC2C(c3ccccc3)=NOC21 (stereo unspecified)         > 100 µM
 7     COc1ccccc1NC(=O)/C(=C/c1ccccc1)C(C)=O         > 100 µM
 8  CCOP(=O)(OCC)OC1CC(n2cc(C)c(=O)n(C)c2=O)OC1CO[Si](C)(C)C(C)(C)C (stereo unspecified)         > 100 µM
 9  O=[N+]([O-])/C(Cl)=C(\NCCN/C(C(Cl)=C(Cl)Cl)=C(/Cl)[N+](=O)[O-])C(Cl)=C(Cl)Cl         > 100 µM
10  CC(C)C(N)C(=O)NC(CCC(=O)NCCCCC(N)C(=O)NCCCNc1ccc([N+](=O)[O-])c2[nH]c3ccccc3c(=O)c12)C(N)=O (stereo unspecified)         > 100 µM
11  CC1(O)CCn2c(=O)c3cc4ccccc4cc3c(=O)n2C1O (stereo unspecified)         > 100 µM
12  COC(=O)[C@H](Cc1ccccc1)NC(=O)N(CCC#N)CCN(C(=O)N[C@@H](Cc1ccccc1)C(=O)OC)c1ccccc1         > 100 µM
13  O=C1CS(=O)(=O)C(c2cccc(Oc3ccccc3)c2)N1c1cc(Cl)ccc1Cl (stereo unspecified)            57 µM
14  CC1=NN(C(=O)c2ccncc2)C(=O)C1N=Nc1ccc(F)cc1 (stereo unspecified)         > 100 µM
15  COc1cccc(COc2cc(-n3cnc4ccccc43)sc2C(N)=O)c1          > 25 µM

----------
System: CAKI-1 renal
TEST_DETAILS: NCI tumour cell line growth inhibition, 48 h
MEASUREMENT_LABEL: TGI

In [3]: df
Out[3]:
                                   compound  measurement_label  measured_result
0  CN1c2ccccc2SC2C(c3ccccc3)=NOC21 (centres undefined)                TGI         > 100 µM
1  COc1cccc(COc2cc(-n3cnc4ccccc43)sc2C(N)=O)c1                TGI          > 25 µM
2  CC1(C)CC(=O)C(CC2C(=O)c3ccccc3C2=O)C(=O)C1                TGI         > 100 µM
3  c1ccc2[nH]c(CNc3ccc(C4C[Se]N=N4)cc3)nc2c1 (centres undefined)                TGI         > 100 µM

----------
System: PC-3 prostate
TEST_DETAILS: NCI tumour cell line growth inhibition, 48 h; in the data active means GI50 below about 0.43 µM; inactive means the rest
Outcome codes: 1 for active, -1 for inactive

In [3]: df
Out[3]:
                               given_smiles  category
0  COc1cccc2c(=O)c3c(sc12)c(NCCCNCCO)nc1ccccc13        -1
1  CCNCCNc1cc(-c2ccc(C#N)cc2)c(C#N)c2nc3ccccc3n12        -1
2  c1cnn2ncc(-c3ccnc(Nc4ccc5c(c4)OCCO5)n3)c2c1         1
3  O=C1/C(=C/c2ccc([N+](=O)[O-])cc2)COc2ccc(O)cc21        -1
4  O=C(/C=C/c1cccc(O)c1)c1cccc(-n2cc(-c3ccc4ccccc4c3)[nH]c2=O)c1        -1
5  Clc1ccc2c(c1)N(c1ncnc3ccc(-c4cnc5[nH]ncc5c4)cc13)CC2        -1
